// data source = paper PMC7826789

# Test system: RSK3(Kin.Dom.2-C-terminal);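 further: KINOMEscan scanMAX binding as percent activity remaining versus control; lower means stronger binding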
# Construct: gene RPS6KA2
# measurementParameters: Compound Concentration (nM):1000
Percent Control for assorted molecules
Response body: numeric value in %, unit text excluded.

Input: Look at this molecule and give its reported Percent Control. COc1cc2ncnc(Nc3ccc4c(cnn4Cc4ccccc4)c3)c2cc1OC.Cl [GW282449A]
Output: 100

Input: Look at this molecule and give its reported Percent Control. NS(=O)(=O)c1ccc(N/N=C2\C(=O)Nc3ccc(C(=O)NCCc4c[nH]cn4)cc32)cc1 [GW300660X]
Output: 100

Input: Look at this molecule and give its reported Percent Control. COc1cc(/C=N/Nc2ncnc3[nH]ncc23)ccc1O [GW578748X]
Output: 100

Input: Look at this molecule and give its reported Percent Control. CC(C)COC(=O)c1ccc2c(c1)/C(=C/Nc1ccc(S(N)(=O)=O)cc1)C(=O)N2 [GW416981X]
Output: 100

Input: Look at this molecule and give its reported Percent Control. Cc1cc(O)cc(C)c1/C=C/c1cncc(C(N)=O)c1 [GW435821X]
Output: 100

Input: Look at this molecule and give its reported Percent Control. COc1ccc2cc(-c3c(-c4ccncc4)nc(-c4ccc(S(C)(=O)=O)cc4C)n3C)ccc2c1 [SB-633825]
Output: 100

Input: Look at this molecule and give its reported Percent Control. Nc1ncnc2occ(-c3ccc(NC(=O)Nc4cc(C(F)(F)F)ccc4F)cc3)c12 [GW770249X]
Output: 59

Next:
Input: Look at this molecule and give its reported Percent Control. CN1CCN(C(=O)c2ccc(NC(=O)Nc3ccc(N(C)c4ccnc(Nc5ccc(CS(C)(=O)=O)cc5)n4)cc3)cc2)CC1.Cl [GW830263A]
Output: 89
